System: Candida tropicalis
protocol_notes: Inhibition of Candida tropicalis ATCC 750 chitin synthase using […] as substrate at 300 ug/ml incubated for 1 hr by absorbance based assay relative to control
test_parameters: dose 300.0 µg/ml
Kindly state inhibition for each of the entries shown.
Report as a plain number; the unit % is understood.

Recorded inhibition of O=C(/C=C/C(=O)Nc1ccccc1Cl)Nc1ccc2c(c1)C(=O)NC1(CCSC1)N2 (stereo not given) , please. 58.4

Recorded inhibition of O=C(/C=C/C(=O)Nc1ccccc1Cl)Nc1ccc2c(c1)C(=O)NC1(CCCC1)N2 , please. 38.7

Recorded inhibition of O=C(/C=C/C(=O)Nc1ccc2c(c1)C(=O)NC1(CCSC1)N2)Nc1ccc([N+](=O)[O-])cc1 (stereo not given) , please. 82.3

Recorded inhibition of O=C(/C=C/C(=O)Nc1ccc2c(c1)C(=O)NC1(CCSC1)N2)Nc1ccc(Cl)cc1 (stereo not given) , please. 58

Recorded inhibition of Cc1ccc([N+](=O)[O-])cc1NC(=O)/C=C/C(=O)Nc1ccc2c(c1)C(=O)NC1(CCSC1)N2 (stereo not given) , please. 77.4

* * *

Tested on: Candida albicans
protocol_notes: Antifungal activity against Fluconazole-resistant Candida albicans ATCC 76615R assessed as fungal growth inhibition
Type: functional
value_kind: MIC (µg/mL)
Report as a plain number; the unit µg/mL is understood.

Recorded MIC of OC(Cn1cncn1)(Cn1cncn1)c1ccc(F)cc1F [FLUCONAZOLE] , please. 256

Recorded MIC of O=C(/C=C/C(=O)Nc1ccc2c(c1)C(=O)NC1(CCSC1)N2)Nc1ccc([N+](=O)[O-])cc1 (stereo unspecified) , please. 8

Recorded MIC of O=C(/C=C/C(=O)Nc1ccccc1[N+](=O)[O-])Nc1ccc2c(c1)C(=O)NC1(CCSC1)N2 (stereo unspecified) , please. 8

Recorded MIC of O=C(/C=C/C(=O)Nc1ccc2c(c1)C(=O)NC1(CCSC1)N2)Nc1ccc(Br)cc1 (stereo unspecified) , please. 32

Recorded MIC of O=C(/C=C/C(=O)Nc1ccc(Cl)cc1Cl)Nc1ccc2c(c1)C(=O)NC1(CCSC1)N2 (stereo unspecified) , please. 32

Recorded MIC of Cc1ccc([N+](=O)[O-])cc1NC(=O)/C=C/C(=O)Nc1ccc2c(c1)C(=O)NC1(CCSC1)N2 (stereo unspecified) , please. 16

* * *

Kindly state viability at 24 h, 16 ug/ml for each of the entries shown.
protocol_notes: Cytotoxicity against human A549 cells assessed as cell viability at 16 ug/ml incubated for 24 hrs by CCK-8 assay relative to control
Assay type: toxicity, cell-based
test_parameters: at 16 µg/mL, read-out: Activity
Just the number plus its unit, please.

Recorded viability at 24 h, 16 ug/ml of NC(=O)OC[C@H](O)[C@@H](O)[C@H](N)C(=O)N[C@H](C(=O)O)[C@H]1O[C@@H](n2cc(CO)c(=O)[nH]c2=O)[C@H](O)[C@@H]1O [POLYOXIN B] , please. 97.9%

Recorded viability at 24 h, 16 ug/ml of O=C(/C=C/C(=O)Nc1ccc2c(c1)C(=O)NC1(CCSC1)N2)Nc1ccc([N+](=O)[O-])cc1 (configuration not stated) , please. 94%

* * *

Test system: Candida albicans
protocol_notes: Antifungal activity against Candida albicans ATCC 76615 assessed as fungal growth inhibition incubated for 24 hrs by two-fold serial dilution method
Type: functional
For each record, check the reported MIC: if it is below 8 µg/mL write condition met, else write condition not met.

Please check: MIC for O=C(/C=C/C(=O)Nc1ccc2c(c1)C(=O)NC1(CCCC1)N2)Nc1ccc(Cl)cc1 , strictly under 8 µg/mL or not? condition not met

Please check: MIC for O=C(/C=C/C(=O)Nc1ccc2c(c1)C(=O)NC1(CCSC1)N2)Nc1cccc(Br)c1 (stereo not drawn) , strictly under 8 µg/mL or not? condition not met

Please check: MIC for O=C(/C=C/C(=O)Nc1ccc2c(c1)C(=O)NC1(CCSC1)N2)Nc1ccc([N+](=O)[O-])cc1 (stereo not drawn) , strictly under 8 µg/mL or not? condition met

Please check: MIC for O=C(/C=C/C(=O)Nc1ccccc1[N+](=O)[O-])Nc1ccc2c(c1)C(=O)NC1(CCSC1)N2 (stereo not drawn) , strictly under 8 µg/mL or not? condition met

Please check: MIC for O=C(/C=C/C(=O)Nc1ccc2c(c1)C(=O)NC1(CCOC1)N2)Nc1ccc(Br)cc1 (stereo not drawn) , strictly under 8 µg/mL or not? condition not met

Please check: MIC for O=C(/C=C/C(=O)Nc1ccc2c(c1)C(=O)NC1(CCOC1)N2)Nc1ccc(Cl)cc1 (stereo not drawn) , strictly under 8 µg/mL or not? condition not met

Please check: MIC for OC(Cn1cncn1)(Cn1cncn1)c1ccc(F)cc1F [FLUCONAZOLE] , strictly under 8 µg/mL or not? condition met

* * *

Kindly state MIC for each of the entries shown.
System: Aspergillus fumigatus
protocol_notes: Antifungal activity against Fluconazole-resistant Aspergillus fumigatus GIMCC 3.19R assessed as fungal growth inhibition
Assay type: functional
Report as a plain number; the unit µg/mL is understood.

Recorded MIC of O=C(/C=C/C(=O)Nc1ccccc1[N+](=O)[O-])Nc1ccc2c(c1)C(=O)NC1(CCSC1)N2 (stereo not drawn) , please. 8

Recorded MIC of Cc1ccc([N+](=O)[O-])cc1NC(=O)/C=C/C(=O)Nc1ccc2c(c1)C(=O)NC1(CCSC1)N2 (stereo not drawn) , please. 16

Recorded MIC of O=C(/C=C/C(=O)Nc1ccc(Cl)cc1Cl)Nc1ccc2c(c1)C(=O)NC1(CCSC1)N2 (stereo not drawn) , please. 16
